Provide the recorded IC50 for the entries that follow.
System Tested: Ba/F3-KIF5B-RET-V804M (Homo sapiens, UniProt P07949, V804M)
Construct: KIF5B (fusion partner, N-terminal part of kinesin-1 heavy chain, P33176); host or cells: Ba/F3 (murine pro-B cells); the other entry of the earlier key: KIF5B (P33176, Kinesin-1 heavy chain)
Sequence (P07949 713-1063 V804M limits assumed): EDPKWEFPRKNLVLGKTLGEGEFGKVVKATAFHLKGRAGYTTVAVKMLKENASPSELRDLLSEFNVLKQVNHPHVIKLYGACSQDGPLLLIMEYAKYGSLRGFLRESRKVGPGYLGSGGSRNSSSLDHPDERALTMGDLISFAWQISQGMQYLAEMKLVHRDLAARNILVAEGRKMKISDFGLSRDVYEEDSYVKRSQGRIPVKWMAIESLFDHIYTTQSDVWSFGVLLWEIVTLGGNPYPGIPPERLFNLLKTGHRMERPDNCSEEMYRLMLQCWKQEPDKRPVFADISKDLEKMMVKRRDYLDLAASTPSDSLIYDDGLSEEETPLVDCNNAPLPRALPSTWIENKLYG
Protocol: Cell anti-proliferation (CellTiter-Glo), Ba/F3-KIF5B-RET-V804M cells
Assay type: cell-based
Measurement Setup: cell viability, 72 h incubation

CO[C@]1(C(=O)N[C@@H](C)c2ccc(-n3cc(F)cn3)nc2)CC[C@H](c2nc(Nc3cc(C)[nH]n3)c3cnn(CCF)c3n2)CC1: < 10 nM
CCCn1ncc2c(Nc3cc(C)[nH]n3)nc([C@H]3CC[C@](OC)(C(=O)N[C@@H](C)c4cnc(-n5cc(F)cn5)cn4)CC3)nc21: 10 to 50 nM
CCn1ncc2c(Nc3cc(C)[nH]n3)nc([C@H]3CC[C@](OC)(C(=O)N[C@@H](C)c4csc(-n5cc(F)cn5)n4)CC3)nc21: 10 to 50 nM
[2H]C([2H])([2H])n1ncc2c(Nc3cc(C)[nH]n3)nc([C@H]3CC[C@](OC)(C(=O)N[C@@H](C)c4cnc(-n5cc(F)cn5)cn4)CC3)nc21: < 10 nM
COCCn1ncc2c(Nc3cc(C)[nH]n3)nc([C@H]3CC[C@](OC)(C(=O)N[C@@H](C)c4cnc(-n5cc(F)cn5)cn4)CC3)nc21: 10 to 50 nM
CO[C@]1(C(=O)N[C@@H](C)c2cnc(-n3cc(F)cn3)cn2)CC[C@H](c2nc(Nc3cc(C)[nH]n3)c3cnn(C4CC4)c3n2)CC1: < 10 nM
CO[C@]1(C(=O)N[C@@H](C)c2cnc(-n3cc(F)cn3)s2)CC[C@H](c2nc(Nc3cc(C)[nH]n3)c3cnn(C4CC4)c3n2)CC1: 10 to 50 nM
CO[C@]1(C(=O)N[C@@H](C)c2cnc(-n3cc(F)cn3)cn2)CC[C@H](c2nc(Nc3cc(C)[nH]n3)c3cnn(CC(F)F)c3n2)CC1: < 10 nM
CCn1ncc2c(Nc3cc(C)[nH]n3)nc([C@H]3CC[C@](OC)(C(=O)N[C@@H](C)c4ccc(-n5cc(F)cn5)nc4)CC3)nc21: < 10 nM
CO[C@]1(C(=O)N[C@@H](C)c2cnc(-n3cc(F)cn3)cn2)CC[C@H](c2nc(Nc3cc(C)[nH]n3)c3cnn(C4COC4)c3n2)CC1: 10 to 50 nM

I have 6 compounds here; please give me IC50 for each one.
1. CO[C@]1(C(=O)N[C@@H](C)c2ccc(-n3cc(F)cn3)nc2)CC[C@H](c2nc(Nc3cc(C)[nH]n3)c3cnn(C)c3n2)CC1
2. CO[C@]1(C(=O)N[C@@H](C)c2cnc(-n3cc(F)cn3)cn2)CC[C@H](c2nc(Nc3cc(C)[nH]n3)c3cnn(CC(F)(F)F)c3n2)CC1
3. CO[C@]1(C(=O)N[C@@H](C)c2ccc(-n3cc(F)cn3)nc2)CC[C@H](c2nc(Nc3cc(C)[nH]n3)c3cnn(CC(F)F)c3n2)CC1
4. CO[C@]1(C(=O)N[C@@H](C)c2cnc(-n3cc(F)cn3)cn2)CC[C@H](c2nc(Nc3cc(C)[nH]n3)c3cn(CC(F)(F)F)nc3n2)CC1 [Control Example 3, reference compound]
5. CO[C@]1(C(=O)N[C@@H](C)c2csc(-n3cc(F)cn3)n2)CC[C@H](c2nc(Nc3cc(C)[nH]n3)c3cnn(C4CC4)c3n2)CC1
6. CO[C@]1(C(=O)N[C@@H](C)c2ccc(-n3cc(F)cn3)nc2)CC[C@H](c2nc(Nc3cc(C)[nH]n3)c3cnn(COCC[Si](C)(C)C)c3n2)CC1

Ans.
< 10 nM
10 to 50 nM
< 10 nM
> 50 nM
10 to 50 nM
> 50 nM

I have 7 compounds here; please give me IC50 for each one.
1. CO[C@]1(C(=O)N[C@@H](C)c2ccc(-n3cc(F)cn3)nc2)CC[C@H](c2nc(Nc3cc(C)[nH]n3)c3ccn(C)c3n2)CC1 [Control Example 1, reference compound]
2. CO[C@]1(C(=O)N[C@@H](C)c2cnc(-n3cc(F)cn3)cn2)CC[C@H](c2nc(Nc3cc(C)[nH]n3)c3cnn(CC4CC4)c3n2)CC1
3. CO[C@]1(C(=O)N[C@@H](C)c2cnc(-n3cc(F)cn3)cn2)CC[C@H](c2nc(Nc3cc(C)[nH]n3)c3cnn(C)c3n2)CC1
4. CCn1ncc2c(Nc3cc(C)[nH]n3)nc([C@H]3CC[C@](OC)(C(=O)N[C@@H](C)c4cnc(-n5cc(F)cn5)s4)CC3)nc21
5. CCn1ncc2c(Nc3cc(C)[nH]n3)nc([C@H]3CC[C@](OC)(C(=O)N[C@@H](C)c4cnc(-n5cc(F)cn5)cn4)CC3)nc21
6. CO[C@]1(C(=O)N[C@@H](C)c2cnc(-n3cc(F)cn3)cn2)CC[C@H](c2nc(Nc3cc(C)[nH]n3)c3cnn(C4CC(F)(F)C4)c3n2)CC1
7. [2H]C([2H])([2H])n1ncc2c(Nc3cc(C)[nH]n3)nc([C@H]3CC[C@](OC)(C(=O)N[C@@H](C)c4ccc(-n5cc(F)cn5)nc4)CC3)nc21

Ans.
["< 10 nM", "10 to 50 nM", "< 10 nM", "10 to 50 nM", "< 10 nM", "10 to 50 nM", "< 10 nM"]
